Provenance of the data: ChEMBL document CHEMBL1240473

# reported zone of inhibition at 100 µg/disc; entries follow
# Tested on: Fusarium solani
# Method summary: Antimicrobial activity against Fusarium solani NCIM 1330 at 100 ug/disk after 48 hrs by agar disc-diffusion method
# Assay type: functional
# Details: NCIM 1330, 48 h, read-out: DIZ
Field format: number, assumed mm, no unit text.

[[record]]
structure_string = "O=S(=O)(Cc1nnc(CS(=O)(=O)c2ccccc2)o1)Nc1ccccc1"
measurement_label = "zone of inhibition at 100 µg/disc"
readout_number = 13

[[record]]
structure_string = "O=S(=O)(Cc1nnc(CS(=O)(=O)c2ccccc2)s1)Nc1ccccc1"
measurement_label = "zone of inhibition at 100 µg/disc"
readout_number = 31


Now for the molecule whose zone of inhibition at 100 µg/disc we want.
Item: O=S(=O)(Cc1nnc(-c2ccccc2)o1)Nc1ccccc1 Test system: Fusarium solani Read-out: zone of inhibition at 100 µg/disc Value: ?
11

====

Readings of zone of inhibition at 100 µg/disc for the listed compounds
# Test system: Proteus vulgaris
# Method summary: Antimicrobial activity against Proteus vulgaris NCIM 2027 at 100 ug/disk after 24 hrs by agar disc-diffusion method
# Format: functional
# Details: NCIM 2027, 24 h, read-out: DIZ
Respond with the bare value in mm.

[[record]]
structure_string = "O=C(N[C@H](CO)[C@H](O)c1ccc([N+](=O)[O-])cc1)C(Cl)Cl"
readout_number = 42


Quick one: zone of inhibition at 100 µg/disc for Cc1ccc(NS(=O)(=O)Cc2nnc(CS(=O)(=O)c3ccc(C)cc3)o2)cc1 ?
10

What does the record list as zone of inhibition at 100 µg/disc for O=S(=O)(Cc1nnc(-c2ccc(Cl)cc2)s1)Nc1ccc(Cl)cc1 ?
18

Entry O=S(=O)(Cc1nnc(CS(=O)(=O)c2ccccc2)o1)Nc1ccccc1 has what zone of inhibition at 100 µg/disc?
12

Please report the recorded zone of inhibition at 100 µg/disc for O=S(=O)(Cc1nnc(CS(=O)(=O)c2ccccc2)s1)Nc1ccccc1 .
23

Please report the recorded zone of inhibition at 100 µg/disc for Cc1ccc(NS(=O)(=O)Cc2nnc(CS(=O)(=O)c3ccc(C)cc3)s2)cc1 .
24

What value of zone of inhibition at 100 µg/disc has been reported for the following compound? Cc1ccc(NS(=O)(=O)Cc2nnc(-c3ccc(C)cc3)o2)cc1
7

Need zone of inhibition at 100 µg/disc of O=S(=O)(Cc1nnc(-c2ccccc2)o1)Nc1ccccc1 , thanks.
6

So what's the measured zone of inhibition at 100 µg/disc for this one? Cc1ccc(NS(=O)(=O)Cc2nnc(-c3ccc(C)cc3)s2)cc1
13

I would be grateful if you could share the reported zone of inhibition at 100 µg/disc for O=S(=O)(Cc1nnc(-c2ccc(Cl)cc2)o1)Nc1ccc(Cl)cc1 .
10

Fill in: zone of inhibition at 100 µg/disc of O=S(=O)(Cc1nnc(CS(=O)(=O)c2ccc(Cl)cc2)s1)Nc1ccc(Cl)cc1 is ___
25

Item O=S(=O)(Cc1nnc(CS(=O)(=O)c2ccc(Cl)cc2)o1)Nc1ccc(Cl)cc1 has what recorded zone of inhibition at 100 µg/disc?
13

Form field: reported zone of inhibition at 100 µg/disc of O=S(=O)(Cc1nnc(-c2ccccc2)s1)Nc1ccccc1
15

====

# Test system: Fusarium solani
# Method summary: Antimicrobial activity against Fusarium solani NCIM 1330 after 48 hrs by microdilution susceptibility method
# Type: functional
# Details: NCIM 1330, 48 h
Recorded MIC for the following compounds
Kindly answer with a numeric value in µg/mL, unit omitted.

Previously resolved entries follow.
[[record]]
compound = "O=S(=O)(Cc1nnc(CS(=O)(=O)c2ccccc2)s1)Nc1ccccc1"
measurement_label = "MIC"
readout_number = 100

[[record]]
compound = "O=S(=O)(Cc1nnc(CS(=O)(=O)c2ccc(Cl)cc2)s1)Nc1ccc(Cl)cc1"
measurement_label = "MIC"
readout_number = 50

[[record]]
compound = "CC(=O)N1CCN(c2ccc(OCC3COC(Cn4ccnc4)(c4ccc(Cl)cc4Cl)O3)cc2)CC1 (stereo not given) [KETOCONAZOLE]"
measurement_label = "MIC"
readout_number = 12.5


Query for Fusarium solani: what MIC does the record show for Cc1ccc(NS(=O)(=O)Cc2nnc(CS(=O)(=O)c3ccc(C)cc3)s2)cc1 ?
50

Item O=S(=O)(Cc1nnc(-c2ccc(Cl)cc2)s1)Nc1ccc(Cl)cc1 with Fusarium solani - MIC?
200
